Every entry's value here was drawn from patent US4429127A.

test: Tissue levels after a single oral administration in rats (microbiological assay); format: in vivo; conditions: rat, serum, 50 mg/kg oral, 1.0 hour; read-out: Serum concentration
Assay endpoint: concentration at 1 h (ng/mL)
Number in ng/mL, nothing else.

For the compound shown here, CCn1cc(C(=O)O)c(=O)c2cc(F)c(N3CCN(Cc4ccc(N)cc4)CC3)c(F)c21 , give the reported concentration at 1 h.
5300

---

test: Tissue levels after a single oral administration in rats (microbiological assay); format: in vivo; details: rat, lung, 50 mg/kg oral, 0.5 hour; read-out: Lung concentration
Assay endpoint: concentration at 0.5 h (ng/mL)
Number in ng/mL, nothing else.

Give its concentration at 0.5 h value. Item: CCn1cc(C(=O)O)c(=O)c2cc(F)c(N3CCN(Cc4ccc(N)cc4)CC3)c(F)c21 [compound (I)]
6000
